procedure.details: RP, Merck Supelco Ascentis Express C18, 100 × 2.1 mm, 2 µm, 40 °C, 0.4 mL/min, estimated dead time 0.55 min; A: water + 0.1% formic acid, pH 3; B: acetonitrile + 0.1% formic acid, pH 3; gradient (min/%B) 0/5 2/5 17/99.9 20/99.9
assay.context: stereoisomer not certain
property: LC retention time (min)

Record excerpt, results attached:
CC12CCC(=O)C=C1CCC1C2C(=O)CC2(C)C1CCC2(O)C(=O)CO (stereo not given) : 6.69
O=C(O)c1cccc(O)c1O [2,3-DIHYDROXYBENZOATE] : 1.52
O=C(O)CCC(=O)O [SUCCINATE] : 0.73

1. Cn1cnc2c(ncn2C2OC(CO)C(O)C2O)c1=N (stereo not given)
2. O=C([O-])CCCCCCC(=O)[O-] [SUBERATE]
Lookup: Given the listed records, identify the one among 1 and 2 with higher LC retention time. Selection: enter the item's label.
Found: 2

* * *

procedure.details: RP, Merck Supelco Ascentis Express C18, 100 × 2.1 mm, 2 µm, 40 °C, 0.4 mL/min, estimated dead time 0.55 min; A: water + 0.1% formic acid, pH 3; B: acetonitrile + 0.1% formic acid, pH 3; gradient (min/%B) 0/5 2/5 17/99.9 20/99.9
assay.context: stereoisomer not certain
property: LC retention time (min)

A. CC(CCC(=O)NCC(=O)O)C1CCC2C3C(O)CC4CC(O)CCC4(C)C3CC(O)C12C (stereo unspecified) [GLYCOCHOLATE]
B. CCC=CCC=CCC=CCC=CCC=CCC=CCCC(=O)O [DOCOSAHEXAENOATE]
C. CC(C)(CO)C(O)C(=O)NCCC(=O)O (stereo unspecified) [PANTOTHENATE]
D. CCC(C)C(=O)C(=O)O (stereo unspecified) [3-METHYL-2-OXOVALERATE]
Lookup: Rank items: key LC retention time, increasing. Your task in answering is to list the labels in the requested order.
Found: C, D, A, B

* * *

procedure.details: RP, Merck Supelco Ascentis Express C18, 100 × 2.1 mm, 2 µm, 40 °C, 0.2 mL/min, estimated dead time 1.1 min; A: water + 0.1% formic acid, pH 3; B: acetonitrile + 0.1% formic acid, pH 3; gradient (min/%B) 0/5 2/5 17/99.9 20/99.9
assay.context: stereoisomer not certain
property: LC retention time (min)

Record excerpt, results attached:
CC12CCC(=O)C=C1CCC1C2CCC2(C)C1CCC2(O)C(=O)CO (configuration not stated) [CORTEXOLONE] : 9.2
Nc1nc2nccnc2c(=O)[nH]1 [PTERIN] : 1.33
CC(=O)N1CCCC1C(=O)O (configuration not stated) [N-ACETYLPROLINE] : 2.76
CSCC[C@H](NC=O)C(=O)O [N-FORMYL-L-METHIONINE] : 3.77
O=C(C=Cc1ccc(O)c(O)c1)OC(Cc1ccc(O)c(O)c1)C(=O)O (configuration not stated) [ROSMARINATE] : 6.9
CCC(C(=O)O)C(=O)O [ETHYLMALONATE] : 3.01
NC(=O)[C@@H](N)Cc1c[nH]c2ccccc12 [L-TRYPTOPHANAMIDE] : 2.97
COC(=O)CCCC(=O)O [MONOMETHYLGLUTARATE] : 3.99

a. CCCCCCC=CCCCCCCCC(=O)[O-] [PALMITOLEATE]
b. CC(CCC(=O)O)C(=O)O (configuration not stated) [2-METHYLGLUTARATE]
c. Nc1ccc(C(=O)O)cc1 [4-AMINOBENZOATE]
Lookup: Rank descending by LC retention time. Your task in answering is to list the labels in the requested order.
Found: a, c, b
(a: 16.7 min, c: 5.87 min, b: 3.99 min)

A. CCC=CCC=CCC=CCC=CCC=CCCCC(=O)O [EICOSAPENTAENOATE]
B. OCCc1c[nH]c2ccccc12 [INDOLE-3-ETHANOL]
C. C=C(CC(=O)O)C(=O)O [ITACONATE]
D. Nc1ncnc2c1ncn2C1OC(CO)C(O)C1O (configuration not stated) [ADENOSINE]
E. CC(CCC(=O)NCCS(=O)(=O)O)C1CCC2C3CCC4CC(O)CCC4(C)C3CCC12C (configuration not stated) [LITHOCHOLYLTAURINE]
Lookup: Which order do these items take when sorted by rising LC retention time? List them. Your task in answering is to list the labels in the requested order.
Found: D, C, B, E, A
(D: 1.35 min, C: 2.44 min, B: 7.27 min, E: 11.1 min, A: 15.9 min)
